PROTOCOL CONDITIONS: 353.15 K; 100 kPa; Liquid
MEASURE: mass density (kg/m3)
# value in kg/m3; strip the unit string

MOLECULE	UNIT SPEC	ASSAY VALUE
CCCCCCCC[n+]1ccn(C)c1.F[P-](F)(F)(F)(F)F [1-octyl-3-methylimidazolium hexafluorophosphate]	kg/m3	1193.6

(Q) I am curious: what mass density value has been reported for CCCCn1cc[n+](C)c1C.F[P-](F)(F)(F)(F)F [1-butyl-2,3-dimethylimidazolium hexafluorophosphate] ?
(A) 1305.4

(Q) I am curious: what mass density value has been reported for CCCCCCn1cc[n+](C)c1.F[P-](F)(F)(F)(F)F [1-hexyl-3-methylimidazolium hexafluorophosphate] ?
(A) 1248

(Q) I am curious: what mass density value has been reported for CCCCn1cc[n+](C)c1.F[B-](F)(F)F [1-butyl-3-methylimidazolium tetrafluoroborate] ?
(A) 1161.3

(Q) I am curious: what mass density value has been reported for CCCCCCCC[n+]1ccn(C)c1.F[B-](F)(F)F [1-methyl-3-octylimidazolium tetrafluoroborate] ?
(A) 1064.7

(Q) I am curious: what mass density value has been reported for CCCCn1cc[n+](C)c1.O=S(=O)([O-])C(F)(F)F [1-butyl-3-methylimidazolium trifluoromethanesulfonate] ?
(A) 1254

----------
Catalogue of mass density readings, one per entry.
PROTOCOL CONDITIONS: 333.15 K; 10000 kPa; Liquid
± gives the expanded uncertainty stated by the source.
Respond with the figure and its unit, in that order.

MOLECULE	mass density
CCCCn1cc[n+](C)c1.O=S(=O)([O-])C(F)(F)F [1-butyl-3-methylimidazolium trifluoromethanesulfonate]	1276.9 ± 2.3 kg/m3

Attention now shifts to the item below.
(Q) I am curious: what mass density value has been reported for CCCCn1cc[n+](C)c1C.F[P-](F)(F)(F)(F)F [1-butyl-2,3-dimethylimidazolium hexafluorophosphate] ?
(A) 1327.2 ± 4.8 kg/m3

----------
Catalogue of mass density readings, one per entry.
PROTOCOL CONDITIONS: 383.15 K; 2000 kPa; Liquid
± gives the expanded uncertainty stated by the source.

See these solved cases before continuing.
COMPOUND	MEASURE	ASSAY VALUE
CCCCCCCC[n+]1ccn(C)c1.F[P-](F)(F)(F)(F)F [1-octyl-3-methylimidazolium hexafluorophosphate]	mass density	1174.2 ± 2.5 kg/m3
CCCCn1cc[n+](C)c1.F[B-](F)(F)F [1-butyl-3-methylimidazolium tetrafluoroborate]	mass density	1143.1 ± 2.2 kg/m3
CCCCn1cc[n+](C)c1C.F[P-](F)(F)(F)(F)F [1-butyl-2,3-dimethylimidazolium hexafluorophosphate]	mass density	1284.7 ± 3.3 kg/m3
CCCCCCn1cc[n+](C)c1.F[P-](F)(F)(F)(F)F [1-hexyl-3-methylimidazolium hexafluorophosphate]	mass density	1227.9 ± 2.9 kg/m3
CCCCCCCC[n+]1ccn(C)c1.F[B-](F)(F)F [1-methyl-3-octylimidazolium tetrafluoroborate]	mass density	1047.9 ± 0.8 kg/m3

(Q) I am curious: what mass density value has been reported for CCCCn1cc[n+](C)c1.O=S(=O)([O-])C(F)(F)F [1-butyl-3-methylimidazolium trifluoromethanesulfonate] ?
(A) 1233.9 ± 1.4 kg/m3

----------
PROTOCOL CONDITIONS: 333.15 K; 2000 kPa; Liquid
MEASURE: mass density (kg/m3)
# value in kg/m3; strip the unit string

See these solved cases before continuing.
MOLECULE	UNIT SPEC	mass density
CCCCCCCC[n+]1ccn(C)c1.F[B-](F)(F)F [1-methyl-3-octylimidazolium tetrafluoroborate]	kg/m3	1079.3
CCCCn1cc[n+](C)c1.F[B-](F)(F)F [1-butyl-3-methylimidazolium tetrafluoroborate]	kg/m3	1176.9
CCCCCCn1cc[n+](C)c1.F[P-](F)(F)(F)(F)F [1-hexyl-3-methylimidazolium hexafluorophosphate]	kg/m3	1265.4

(Q) I am curious: what mass density value has been reported for CCCCn1cc[n+](C)c1C.F[P-](F)(F)(F)(F)F [1-butyl-2,3-dimethylimidazolium hexafluorophosphate] ?
(A) 1323

(Q) I am curious: what mass density value has been reported for CCCCn1cc[n+](C)c1.O=S(=O)([O-])C(F)(F)F [1-butyl-3-methylimidazolium trifluoromethanesulfonate] ?
(A) 1271.7

(Q) I am curious: what mass density value has been reported for CCCCCCCC[n+]1ccn(C)c1.F[P-](F)(F)(F)(F)F [1-octyl-3-methylimidazolium hexafluorophosphate] ?
(A) 1210.3
